- assayed system: Peptidyl-prolyl cis-trans isomerase FKBP1A (Homo sapiens, UniProt P62942)
- Sequence (P62942 whole entry): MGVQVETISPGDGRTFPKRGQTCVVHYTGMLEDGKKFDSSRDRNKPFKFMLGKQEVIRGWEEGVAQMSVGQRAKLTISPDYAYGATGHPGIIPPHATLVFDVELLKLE
- test method notes: Ability to bind the major cystolic receptor FK506 binding protein 12 by using competitive binding assay
pEC50: −log10 of the molar value.
pEC50 for assorted compounds

>  <sample smiles>
CC[C@@H]1/C=C(\C)C[C@H](C)C[C@H](OC)[C@H]2O[C@@](O)(C(=O)C(=O)N3CCCC[C@H]3C(=O)O[C@H](/C(C)=C/[C@@H]3CC[C@@H](OC/C=C/c4cccc([N+](=O)[O-])c4)[C@H](OC)C3)[C@H](C)[C@@H](O)CC1=O)[C@H](C)C[C@@H]2OC

>  <pEC50>
7.46

$$$$
>  <sample smiles>
CC[C@@H]1/C=C(\C)C[C@H](C)C[C@H](OC)[C@H]2O[C@@](O)(C(=O)C(=O)N3CCCC[C@H]3C(=O)O[C@H](/C(C)=C/[C@@H]3CC[C@@H](OC/C=C/c4ccc(O)cc4)[C@H](OC)C3)[C@H](C)[C@@H](O)CC1=O)[C@H](C)C[C@@H]2OC

>  <pEC50>
7.69

$$$$
>  <sample smiles>
CC[C@@H]1/C=C(\C)C[C@H](C)C[C@H](OC)[C@H]2O[C@@](O)(C(=O)C(=O)N3CCCC[C@H]3C(=O)O[C@H](/C(C)=C/[C@@H]3CC[C@@H](O)[C@H](OC)C3)[C@H](C)[C@@H](O)CC1=O)[C@H](C)C[C@@H]2OC

>  <pEC50>
8.80

$$$$
>  <sample smiles>
CC[C@@H]1/C=C(\C)C[C@H](C)C[C@H](OC)[C@H]2O[C@@](O)(C(=O)C(=O)N3CCCC[C@H]3C(=O)O[C@H](/C(C)=C/[C@@H]3CC[C@@H](OC/C=C/c4ccc(Br)cc4)[C@H](OC)C3)[C@H](C)[C@@H](O)CC1=O)[C@H](C)C[C@@H]2OC

>  <pEC50>
7.64

$$$$
